Give measured Activity for each item. Keep answers brief.
organism: Homo sapiens; assay: Inhibition of Rho/MRTF/SRF pathway in human primary dermal fibroblasts assessed as inhibition of TGF-beta-stimulated ACTA2 gene expression by measuring ACTA2 mRNA level at 10 uM after 24 hrs by qRT-PCR method relative to control; design: scale not given: the % may be the effect or the level left
Expressed in %, but write only the number.

Form field: reported Activity of Cn1cncc1-c1cccc(C(=O)N2CC(C(=O)Nc3ccc(Cl)cc3)CC(F)(F)C2)c1 (stereo not given)
110

So what does the record say about Activity for O=C(Nc1ccc(Cl)cc1)C1CCCN(C(=O)c2cccc(-c3ccco3)c2)C1 (stereo not given) ?
37

Form field: reported Activity of O=C(Nc1ccc(Cl)cc1)C1CCCN(C(=O)c2cccc(-c3cn[nH]c3)c2)C1 (stereo not given)
73

// lookup Activity for O=C(Nc1ccc(Cl)cc1)C1CN(C(=O)c2cc(F)cc(-c3ccncc3)c2)CC(F)(F)C1 (stereo not given)
14

Entry O=C(Nc1ccc(Cl)cc1)C1CN(C(=O)c2cccc(-c3ccncc3)c2)CC(F)(F)C1 (stereo not given) has what Activity?
31

Values from ChEMBL document CHEMBL4007484
